IC50, Human SCD-1 (Homo sapiens (Human), UniProt O00767): measured values

Examples with answers:
                                   molecule          result
0  Cn1cc(Cl)nc(N2CCC(Oc3ccccc3Cl)CC2)c1=O [Example 6]  100 to 1000 nM
1  Fc1ccc(Cl)c(OC2CCN(c3nccnn3)CC2)c1 [Example 18]           30 nM
2  Cc1cnc(N2CCC(Oc3cc(F)ccc3Cl)CC2)nn1 [Example 30]          100 nM

Challenge: Can you share its IC50? I mean this molecule: O=[N+]([O-])c1ccccc1OC1CCN(c2nccnn2)CC1 [Example 35]
Response given: 100 to 1000 nM

Challenge: Can you share its IC50? I mean this molecule: FC(F)(F)c1ccc(Cl)c(OC2CCN(c3nccnn3)C2)c1 (centres unmarked) [Example 42]
Response given: 300 to 1000 nM

Challenge: Can you share its IC50? I mean this molecule: CC1CN(c2nccnn2)CCC1Oc1cc(Cl)ccc1Cl (centres unmarked) [Example 38]
Response given: 300 to 1000 nM

Challenge: Can you share its IC50? I mean this molecule: Cc1cnnc(N2CCC(Oc3ccccc3Cl)CC2)n1 [Example 28]
Response given: 300 to 1000 nM

Challenge: Can you share its IC50? I mean this molecule: O=[N+]([O-])c1ccc(Cl)c(OC2CCN(c3nccnn3)CC2)c1 [Example 32]
Response given: 30 to 100 nM

Challenge: Can you share its IC50? I mean this molecule: CCCCCCCCC1=C(CCCCCCCC(=O)O)C1 [Sterculic acid, reference compound]
Response given: 300 nM

Challenge: Can you share its IC50? I mean this molecule: Cn1ccnc(N2CCC(Oc3ccccc3C(F)(F)F)CC2)c1=O [Example 11]
Response given: 100 nM

Challenge: Can you share its IC50? I mean this molecule: Fc1cc(Br)c(OC2CCN(c3nccnn3)CC2)cc1F [Example 33]
Response given: 10 to 100 nM
